# measurementTarget: Human CYP17 (Homo sapiens (Human))
# assaySummary: CYP17 Total SPA Assay
# Assay type: biochemical
# assayContext: microsomes from HEK2 cells stably transfected with CYP17; 3H-Pregnenolone 1 uM; NADPH 2 mM; 45 minutes at room temperature
observedProperty: pIC50
One number for each entry, as −log10 of the molar value.

structureassmiles=COc1ccncc1-c1ccc(NS(C)(=O)=O)cc1OCC(F)(F)F observedmeasurement=7.25
structureassmiles=Cc1cc(NS(C)(=O)=O)ccc1-c1cnccc1-c1ccccc1 observedmeasurement=6.98
structureassmiles=COc1cc(NS(=O)(=O)c2ccccc2)ccc1-c1cncc2ccccc12 observedmeasurement=8.54
structureassmiles=COc1cc(NS(=O)(=O)Cc2ccccc2)ccc1-c1cncnc1C observedmeasurement=8.02

Please state, for each entry, its recorded pIC50.
1. COc1cc(NS(=O)(=O)c2cccc3ccccc23)ccc1-c1cncc2ccccc12
2. Cc1ccncc1-c1ccc(NS(C)(=O)=O)cc1OCC(F)F
3. COc1cc(NS(C)(=O)=O)ccc1-c1cncnc1OC
4. COc1ccc(S(=O)(=O)Nc2ccc(-c3cncnc3C)c(OC)c2)cc1
5. COc1cc(NS(=O)(=O)c2cn(C)c(C)n2)ccc1-c1cncc2ccccc12
6. COc1cc(NS(=O)(=O)C2CC2)ccc1-c1cncnc1C

[out]
1. 7.96
2. 7.49
3. 7.24
4. 7.25
5. 6.93
6. 6.77

====

Human CYP17 (Homo sapiens (Human)) IC50 data
Numbers only, in nM.

Examples with their reported IC50 follow.
structureassmiles=COc1cc(NS(C)(=O)=O)ccc1-c1cncnc1C(C)C scaleunit=nM observedmeasurement=103
structureassmiles=COc1cc(NS(=O)(=O)c2ccccn2)ccc1-c1cncc2ccccc12 scaleunit=nM observedmeasurement=6

Now look at this one.
[in] What value of IC50 has been recorded for this entry: `Cc1ccncc1-c1ccc(NS(C)(=O)=O)cc1C(F)(F)F`
[out] 26

====

Human CYP17 (Homo sapiens (Human), UniProt P05093) pIC50 data
Sequence (P05093 whole entry): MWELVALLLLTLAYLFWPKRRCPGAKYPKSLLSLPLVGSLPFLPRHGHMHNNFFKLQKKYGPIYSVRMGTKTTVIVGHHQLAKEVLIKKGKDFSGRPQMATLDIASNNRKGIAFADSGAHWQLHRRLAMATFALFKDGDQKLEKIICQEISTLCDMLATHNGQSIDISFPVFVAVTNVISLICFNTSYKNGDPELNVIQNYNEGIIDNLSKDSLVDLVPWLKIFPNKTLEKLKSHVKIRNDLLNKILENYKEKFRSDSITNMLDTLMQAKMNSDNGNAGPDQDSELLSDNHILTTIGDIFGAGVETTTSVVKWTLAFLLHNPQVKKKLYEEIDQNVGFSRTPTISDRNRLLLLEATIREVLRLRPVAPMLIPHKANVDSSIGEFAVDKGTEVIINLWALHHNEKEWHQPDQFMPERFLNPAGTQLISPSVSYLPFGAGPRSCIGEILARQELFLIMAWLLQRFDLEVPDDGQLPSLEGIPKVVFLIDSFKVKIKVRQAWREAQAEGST
Give bare numbers, as −log10 of the molar value.

structureassmiles=COc1cc(NS(=O)(=O)CC(C)C)ccc1-c1cncnc1C observedproperty=pIC50 observedmeasurement=7.00

Please state, for each entry, its recorded pIC50.
1. CS(=O)(=O)Nc1ccc(-c2cncc3ncccc23)c(OCCF)c1
2. Cc1ccncc1-c1ccc(NS(C)(=O)=O)cc1OCC(F)(F)F
3. CS(=O)(=O)Nc1ccc(-c2cnccc2C2CC2)c(C(F)(F)F)c1
4. COc1cc(NS(=O)(=O)c2cccnc2)ccc1-c1cncnc1C
5. COc1cc(NS(=O)(=O)CCc2ccccc2)ccc1-c1cncnc1C
6. COc1cc(NS(=O)(=O)C2CC2)ccc1-c1cncc2ccccc12
7. COc1ccc(S(=O)(=O)Nc2ccc(-c3cncc4ccccc34)c(OC)c2)cc1

[out]
1. 7.29
2. 7.38
3. 7.41
4. 6.88
5. 6.92
6. 8.21
7. 8.57

[in] What value of pIC50 has been recorded for this entry: `COc1cc(NS(C)(=O)=O)ccc1-c1cnccc1C1CC1`
[out] 8.68
